Below, each entry is listed with its recorded IC50 of IgG (pM) in BaF3-IL-22 proliferation assay.
- EXPERIMENTAL TARGET: T1, human IL-22 (human, UniProt Q9GZX6 34-179)
- T1 sequence: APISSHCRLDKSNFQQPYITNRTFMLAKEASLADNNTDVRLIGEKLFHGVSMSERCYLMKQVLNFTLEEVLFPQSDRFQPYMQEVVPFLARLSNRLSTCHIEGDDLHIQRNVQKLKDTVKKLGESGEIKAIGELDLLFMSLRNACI
- METHOD SUMMARY: cell-based or functional assay
Response body: numeric value in pM, unit text excluded.

Tell me the measured IC50 of IgG (pM) in BaF3-IL-22 proliferation assay of 062G05 IgG (non-germlined) (antibody, V domains shown, IgG) VH: QVQLVESGAEVKKPGASVKVSCKASGYTFTSYGISWVRQAPGQGLEWMGWISAYTGNTNYAQKFQGRVTMTTDTSTSTAYMELRSLRSDDTAVYYCARDRGYYDAFDIWGQGTLVTVSS VL: DIQMTQSPSTLSASIGDRVTITCRASEGIYHWLAWYQQKPGKAPKLLIYKASSLASGAPSRFSGSGFGTDFTLTISSLQPDDFATYYCQQMGEWKAAFGGGTKLEIKR , please.
112

So what's the measured IC50 of IgG (pM) in BaF3-IL-22 proliferation assay for this one? 097D09 IgG (non-germlined) (antibody, V domains shown, IgG) VH: EVQLVESGGGLVTPGGSLRLSCAASGFTFSDYYMSWVRQAPGRGLEWVSAISGSGGSTYYADSVKGRITISRDNAKNSLYLQMSSLRSEDTAVYYCARGLWVWDPLDYWGRGTLVTVSS VL: DIQMTQSPSTLSASIGDRVTITCRASEGIYHWLAWYQQKPGKAPKLLIYKASSLASGAPSRFSGSGFGTDFTLTISSLQPDDFATYYCQQYSEFAWTFGGGTKLEIKR
197

Would you mind telling me what IC50 of IgG (pM) in BaF3-IL-22 proliferation assay value was observed for 355B06 IgG (germlined) (antibody, V domains shown) VH: QVQLVQSGAEVKKPGASVKVSCKASGYTFTDYYMHWVRQAPGQGLEWVGWINPYTGSAFYAQKFRGRVTMTRDTSISTAYMELSRLRSDDTAVYYCAREPEKFGESSGQLWGRGTLVTVSS VL: QAVLTQPPSVSGAPGQRVTISCTGSSSNIGAGYGVHWYQQLPGTAPKLLIYGDSNRPSGVPDRFSGSKSGTSASLAITGLQAEDEADYYCQSYDSGLSGYVFGGGTQLTVLG ?
92
